The measurements presented in this section are drawn from the supplement of paper PMC9170038.

- System: MS2 coat protein
- protocolSummary: apparent KD of MS2 coat protein, switch OFF state (with FMN for OFF switches, without FMN for ON switches); designed switch direction (-1 OFF switch, 1 ON switch): -1; higher = weaker reporter binding
- particulars: FMN input: 0 or 200 uM; Eterna round: R93 (includes R88 designs)
Criterion: apparent KD of MS2 coat protein meeting or surpassing 50 nM. Met: rule met. Not met: rule not met.

>>> qualitativelabel("AAACCACAUGAGGAUCACCCAUGUAAGGAUAUGAACGAAAUAAAAUAAAAAUAAAAGUUCAGAAGGUACAAAAA [Mat - Exclusion 1 - Eli mod - D22]")
"rule not met"
>>> qualitativelabel("AACAUGUUAGGAUAUCAAAGAAAAGAAAAGAAAGAAAAGAAUGAGAAGGAACAUGAGGAUCACCCAUGUAAGAA [EteRNA is fun!]")
"rule not met"
>>> qualitativelabel("AAGGUACGAGGAUAUACAUAGAUACAAACACAUGUGGAUGUACAUGAGGAUCACCCAUGUAGAAGGCGUAUAUA [AJ 22]")
"rule met"
>>> qualitativelabel("AGAAUACAUGAGGAUCACCCAUGUGAGGAUAUAUGAAGAAAAAGAAAAGAAAAGAAACAUAGAAGGCACAAAAG [EX 1 May 16]")
"rule met"
>>> qualitativelabel("AAGAGUAGAGGAUAUACAUGAGGAUCACCCAUGUAAUCCAGAUAAGGAAGCAUGGCGUGUAGAAGGCUGCAUGA [MOD of Nando (MS2 Riboswitches- Exclusion 3)]")
"rule not met"
>>> qualitativelabel("AAAAAACAUGAGGAUCACCCAUGUCAGGAUAUUUCUAAAAAAAAAAAAAAAAAAAAUGAAAGAAGGGACAAAAA [excalibur 6]")
"rule met"
